Molecular target: Beta-secretase 1 (Homo sapiens, UniProt P56817)
Sequence (P56817 whole entry): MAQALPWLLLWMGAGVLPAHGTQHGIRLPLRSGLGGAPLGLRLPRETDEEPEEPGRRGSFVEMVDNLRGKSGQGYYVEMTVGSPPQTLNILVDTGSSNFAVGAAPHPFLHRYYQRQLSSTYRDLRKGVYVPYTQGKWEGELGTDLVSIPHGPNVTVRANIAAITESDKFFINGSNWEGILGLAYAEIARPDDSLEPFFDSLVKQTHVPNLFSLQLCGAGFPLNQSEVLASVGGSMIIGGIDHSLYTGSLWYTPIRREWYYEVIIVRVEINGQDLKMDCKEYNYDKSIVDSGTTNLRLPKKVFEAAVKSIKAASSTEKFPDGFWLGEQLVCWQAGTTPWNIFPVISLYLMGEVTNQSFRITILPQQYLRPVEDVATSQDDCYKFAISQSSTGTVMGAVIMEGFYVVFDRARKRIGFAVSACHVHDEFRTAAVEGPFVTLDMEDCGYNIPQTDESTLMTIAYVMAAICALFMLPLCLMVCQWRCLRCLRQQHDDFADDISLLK
Assay: Inhibition of recombinant human BACE1 using fluorogenic polypeptide Mca-SEVNLDAEFRK(Dpn)RRNH2 as substrate at 10 uM incubated for 60 mins by FRET assay relative to control
I would appreciate it if you labelled entries Condition met when inhibition is 60% or higher, otherwise Condition not met.

Before answering, review these 3 worked examples.
N#Cc1cccc(CNC2CCN(CCCOc3cc(=O)oc4cc(-c5cccnc5)ccc34)CC2)c1; Condition met
O=c1cc(OCCCN2CCC(NCc3ccc(F)c(F)c3)CC2)c2ccc(-c3cccnc3)cc2o1; Condition met
C[C@@]1(c2cc(-c3cncnc3)c(F)cc2F)CCSC(N)=N1; Condition met

Lookup: Say whether O=c1cc(OCCCN2CCC(NCc3ccccc3)CC2)c2ccc(Br)cc2o1 shows inhibition of 60% or more.
Found: Condition met

Lookup: Check the entry O=c1cc(OCCCN2CCC(NCc3ccc(F)cc3)CC2)c2ccc(-c3cccnc3)cc2o1 : does inhibition equal or exceed 60%?
Found: Condition not met

Lookup: inhibition >= 60% for O=c1cc(OCCCN2CCC(NCc3ccccc3)CC2)c2ccc(-c3ccncc3)cc2o1 ?
Found: Condition not met

Lookup: Is reported inhibition greater than or equal to 60% here: COc1cccc(CNC2CCN(CCCOc3cc(=O)oc4cc(-c5cccnc5)ccc34)CC2)c1
Found: Condition not met
